Ref: patent US20100016379A1

- test-system: HIV-1 integrase (Human immunodeficiency virus type 1 group M subtype B)
- Construct: An HIV-1 integrase strand transfer assay
- test-description: HIV-1 integrase strand transfer assay (Screen 2)
- Type: biochemical
- condition-info: strand transfer assay; read-out: Integrase Activity IC50
pIC50: −log10 of the molar value.
Parameter pIC50: see the listing below.

| smiles-structure | pIC50 |
| --- | --- |
| COC(=O)c1ccc(C(=O)Nc2ccccc2)c(O)c1O | > 7.30 |
| COC(=O)c1ccc(C(=O)N(C)Cc2ccccc2)c(O)c1O | < 5.70 |
| COC(=O)c1ccc(C(=O)NCc2cccc(C(F)(F)F)c2)c(O)c1O | 6.30 to 7.30 |
| COC(=O)c1ccc(C(=O)NCc2ccc(C(F)(F)F)cc2)c(O)c1O | 5.70 to 6.30 |
| COC(=O)c1ccc(C(=O)NCc2ccccc2[N+](=O)[O-])c(O)c1O | > 7.30 |
